# ASSAY_EXPLANATION: Selectivity index, ratio of IC50 for human L02 cells to IC50 for human SW620 cells
# Type: toxicity
# APPLIED_CONDITIONS: L02 cells versus SW620 cells, read-out: Ratio IC50
Binary call on selectivity ratio with cut-off 10: strictly below means class 1, and equality or higher means class 0.

Task item: Could you please tell me whether selectivity ratio recorded for COc1ccc(NC(=O)OC2O[C@@H]3O[C@@]4(C)CC[C@@H]5[C@H](C)CC[C@@H]([C@H]2C)[C@@]35OO4)cc1 (some centres not stated) is less than 10?
Reply: class 0

Task item: Could you please tell me whether selectivity ratio recorded for `C[C@H]1[C@@H](O)O[C@@H]2O[C@@]3(C)CC[C@H]4[C@H](C)CC[C@@H]1[C@@]24OO3` is less than 10?
Reply: class 1

Task item: Could you please tell me whether selectivity ratio recorded for Cc1ccc(NC(=O)OC2O[C@@H]3O[C@@]4(C)CC[C@@H]5[C@H](C)CC[C@@H]([C@H]2C)[C@@]35OO4)cc1 (some centres not stated) is less than 10?
Reply: class 0

Task item: Could you please tell me whether selectivity ratio recorded for C[C@@H]1CC[C@H]2[C@@H](C)C(OC(=O)Nc3ccc(Cl)cc3)O[C@@H]3O[C@@]4(C)CC[C@H]1[C@]32OO4 (some centres not stated) is less than 10?
Reply: class 0

Task item: Could you please tell me whether selectivity ratio recorded for CCCNC(=O)OC1O[C@@H]2O[C@@]3(C)CC[C@@H]4[C@H](C)CC[C@@H]([C@H]1C)[C@@]24OO3 (some centres not stated) is less than 10?
Reply: class 1

Task item: Could you please tell me whether selectivity ratio recorded for C[C@@H]1CC[C@H]2[C@@H](C)C(OC(=O)Nc3ccc(F)cc3)O[C@@H]3O[C@@]4(C)CC[C@H]1[C@]32OO4 (some centres not stated) is less than 10?
Reply: class 1

###

# Test system: A549
# ASSAY_EXPLANATION: Anti-proliferative activity against human A549 cells incubated for 72 hrs by MTT assay
# Format: functional, cell-based
# APPLIED_CONDITIONS: A549, 72 h
pIC50: −log10 of the molar value.
# pIC50 >= 5 gives Fulfilled, anything below gives Not fulfilled

Task item: For this compound, is measured pIC50 5 or higher? C[C@@H]1CC[C@H]2[C@@H](C)C(OC(=O)c3cc4ccccc4cn3)O[C@@H]3O[C@@]4(C)CC[C@H]1[C@]32OO4 (stereo partly specified)
Reply: Not fulfilled

Task item: For this compound, is measured pIC50 5 or higher? C[C@@H]1CC[C@H]2[C@@H](C)C(OC(=O)c3ccc(Cn4cc(Cl)cn4)cc3)O[C@@H]3O[C@@]4(C)CC[C@H]1[C@]32OO4 (stereo partly specified)
Reply: Fulfilled

Task item: For this compound, is measured pIC50 5 or higher? C[C@@H]1CC[C@H]2[C@@H](C)C(OC(=O)Nc3ccc(F)cc3)O[C@@H]3O[C@@]4(C)CC[C@H]1[C@]32OO4 (stereo partly specified)
Reply: Fulfilled

Task item: For this compound, is measured pIC50 5 or higher? `C[C@H]1[C@@H](O)O[C@@H]2O[C@@]3(C)CC[C@H]4[C@H](C)CC[C@@H]1[C@@]24OO3`
Reply: Not fulfilled

###

# ASSAY_EXPLANATION: Toxicity in BALB/c mouse assessed as lethal dose administered intraperitoneally continuously for 7 days
# APPLIED_CONDITIONS: in vivo, route ip, time 7 day
MEASUREMENT_KIND: LD50 at 168 h

Task item: GET /values?readout=LD50 at 168 h&item= C[C@@H]1CC[C@H]2[C@@H](C)C(OC(=O)Nc3ccc(Cl)cc3)O[C@@H]3O[C@@]4(C)CC[C@H]1[C@]32OO4 (stereo partly specified)
Reply: > 100 mg/kg

###

Please respond with reported IC50 at 72 h for every item in the list.
# ASSAY_EXPLANATION: Anti-proliferative activity against human L02 cells incubated for 72 hrs by MTT assay
# Type: toxicity, cell-based
Write down the value, and be sure its unit follows.

Task item: GET /values?readout=IC50 at 72 h&item= C[C@@H]1CC[C@H]2[C@@H](C)C(OC(=O)Nc3ccccc3)O[C@@H]3O[C@@]4(C)CC[C@H]1[C@]32OO4 (some centres not stated)
Reply: 13.4 µM

Task item: GET /values?readout=IC50 at 72 h&item= `C[C@H]1[C@@H](O)O[C@@H]2O[C@@]3(C)CC[C@H]4[C@H](C)CC[C@@H]1[C@@]24OO3`
Reply: 8.43 µM

Task item: GET /values?readout=IC50 at 72 h&item= C[C@@H]1CC[C@H]2[C@@H](C)C(OC(=O)Nc3ccc(F)cc3)O[C@@H]3O[C@@]4(C)CC[C@H]1[C@]32OO4 (some centres not stated)
Reply: 9.13 µM

Task item: GET /values?readout=IC50 at 72 h&item= CCCNC(=O)OC1O[C@@H]2O[C@@]3(C)CC[C@@H]4[C@H](C)CC[C@@H]([C@H]1C)[C@@]24OO3 (some centres not stated)
Reply: 12.1 µM

Task item: GET /values?readout=IC50 at 72 h&item= COc1ccc(NC(=O)OC2O[C@@H]3O[C@@]4(C)CC[C@@H]5[C@H](C)CC[C@@H]([C@H]2C)[C@@]35OO4)cc1 (some centres not stated)
Reply: 37 µM

Task item: GET /values?readout=IC50 at 72 h&item= C[C@@H]1CC[C@H]2[C@@H](C)C(OC(=O)Nc3ccc(Cl)cc3)O[C@@H]3O[C@@]4(C)CC[C@H]1[C@]32OO4 (some centres not stated)
Reply: 16.8 µM

Task item: GET /values?readout=IC50 at 72 h&item= Cc1ccc(NC(=O)OC2O[C@@H]3O[C@@]4(C)CC[C@@H]5[C@H](C)CC[C@@H]([C@H]2C)[C@@]35OO4)cc1 (some centres not stated)
Reply: 15.6 µM

###

# Tested on: A549
# ASSAY_EXPLANATION: Anti-proliferative activity against human A549 cells incubated for 72 hrs by MTT assay
# Assay type: functional, cell-based
# APPLIED_CONDITIONS: A549, 72 h
MEASUREMENT_KIND: IC50

Task item: GET /values?readout=IC50&item= C[C@@H]1CC[C@H]2[C@@H](C)C(OC(=O)CCC(=O)NCCc3c[nH]c4ccccc34)O[C@@H]3O[C@@]4(C)CC[C@H]1[C@]32OO4 (stereo partly drawn)
Reply: > 10 µM

Task item: GET /values?readout=IC50&item= COc1cc(-n2cc(C(=O)OC3O[C@@H]4O[C@@]5(C)CC[C@@H]6[C@H](C)CC[C@@H]([C@H]3C)[C@@]46OO5)nn2)cc(OC)c1OC (stereo partly drawn)
Reply: > 10 µM

Task item: GET /values?readout=IC50&item= COc1ccc2[nH]cc(CCNC(=O)CCC(=O)OC3O[C@@H]4O[C@@]5(C)CC[C@@H]6[C@H](C)CC[C@@H]([C@H]3C)[C@@]46OO5)c2c1 (stereo partly drawn)
Reply: > 10 µM

###

# ASSAY_EXPLANATION: Selectivity index, ratio of IC50 for human L02 cells to IC50 for human A549 cells
# Assay type: toxicity
# APPLIED_CONDITIONS: L02 cells versus A549 cells, read-out: Ratio IC50
MEASUREMENT_KIND: selectivity ratio
Answer field: number only, no words.

Task item: GET /values?readout=selectivity ratio&item= COc1ccc(NC(=O)OC2O[C@@H]3O[C@@]4(C)CC[C@@H]5[C@H](C)CC[C@@H]([C@H]2C)[C@@]35OO4)cc1 (some centres undefined)
Reply: 6.38

Task item: GET /values?readout=selectivity ratio&item= C[C@@H]1CC[C@H]2[C@@H](C)C(OC(=O)Nc3ccccc3)O[C@@H]3O[C@@]4(C)CC[C@H]1[C@]32OO4 (some centres undefined)
Reply: 3.2

Task item: GET /values?readout=selectivity ratio&item= C[C@@H]1CC[C@H]2[C@@H](C)C(OC(=O)Nc3ccc(F)cc3)O[C@@H]3O[C@@]4(C)CC[C@H]1[C@]32OO4 (some centres undefined)
Reply: 2.85

Task item: GET /values?readout=selectivity ratio&item= CCCNC(=O)OC1O[C@@H]2O[C@@]3(C)CC[C@@H]4[C@H](C)CC[C@@H]([C@H]1C)[C@@]24OO3 (some centres undefined)
Reply: 13.6

###

# ASSAY_EXPLANATION: Selectivity index, ratio of IC50 for human L02 cells to IC50 for human Bel-7402 cells
# Format: toxicity
# APPLIED_CONDITIONS: L02 cells versus Bel-7402 cells, read-out: Ratio IC50
Please respond with reported selectivity ratio for every item in the list.
Answer field: number only, no words.

Task item: GET /values?readout=selectivity ratio&item= C[C@@H]1CC[C@H]2[C@@H](C)C(OC(=O)Nc3ccc(Cl)cc3)O[C@@H]3O[C@@]4(C)CC[C@H]1[C@]32OO4 (some centres not stated)
Reply: 2

Task item: GET /values?readout=selectivity ratio&item= C[C@@H]1CC[C@H]2[C@@H](C)C(OC(=O)Nc3ccccc3)O[C@@H]3O[C@@]4(C)CC[C@H]1[C@]32OO4 (some centres not stated)
Reply: 2.9

Task item: GET /values?readout=selectivity ratio&item= COc1ccc(NC(=O)OC2O[C@@H]3O[C@@]4(C)CC[C@@H]5[C@H](C)CC[C@@H]([C@H]2C)[C@@]35OO4)cc1 (some centres not stated)
Reply: 4.46

Task item: GET /values?readout=selectivity ratio&item= C[C@H]1[C@@H](O)O[C@@H]2O[C@@]3(C)CC[C@H]4[C@H](C)CC[C@@H]1[C@@]24OO3 [ARTENIMOL]
Reply: 0.2

Task item: GET /values?readout=selectivity ratio&item= Cc1ccc(NC(=O)OC2O[C@@H]3O[C@@]4(C)CC[C@@H]5[C@H](C)CC[C@@H]([C@H]2C)[C@@]35OO4)cc1 (some centres not stated)
Reply: 1.93

Task item: GET /values?readout=selectivity ratio&item= C[C@@H]1CC[C@H]2[C@@H](C)C(OC(=O)Nc3ccc(F)cc3)O[C@@H]3O[C@@]4(C)CC[C@H]1[C@]32OO4 (some centres not stated)
Reply: 1.05
